Every entry's value here was drawn from patent US20140135310A1.

# TESTED TARGET: 5-HT6 receptor (Homo sapiens)
# Construct: purchased PerkinElmer
# Sequence (P50406 whole entry): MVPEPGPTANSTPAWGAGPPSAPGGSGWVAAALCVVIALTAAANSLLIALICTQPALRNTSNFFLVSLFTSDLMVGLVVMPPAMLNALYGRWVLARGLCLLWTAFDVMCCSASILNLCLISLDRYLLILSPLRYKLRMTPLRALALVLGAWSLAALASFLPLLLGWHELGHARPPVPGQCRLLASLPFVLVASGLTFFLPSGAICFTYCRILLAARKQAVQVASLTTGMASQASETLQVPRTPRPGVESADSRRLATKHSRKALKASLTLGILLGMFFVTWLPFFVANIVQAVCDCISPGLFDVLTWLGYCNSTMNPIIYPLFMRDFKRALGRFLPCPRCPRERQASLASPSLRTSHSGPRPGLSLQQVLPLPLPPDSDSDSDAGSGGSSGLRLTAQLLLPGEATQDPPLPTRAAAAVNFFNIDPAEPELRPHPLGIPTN
# ASSAY PROCEDURE: Radioligand binding assay, serotoninergic 5-HT6 receptors;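 note: test compound at 1 µM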
# TEST SETTINGS: binding assay result in %, Table 5a
Please go through the items and note down their inhibition at 1 µM.
Numbers only, in %.

O=S(=O)(N[C@@H]1CCN(CCCc2noc3cc(F)ccc23)C1)c1csc2ccccc12 [Compound 224] | 99
O=S(=O)(NC1CCN(CCCc2noc3cc(F)ccc23)CC1)c1cccc2ccccc12 [Compound 34] | 40
CC(C)(C)c1ccc(S(=O)(=O)NC2CCN(CCCc3noc4cc(F)ccc34)C2)cc1 (stereo not shown) [Compound 14] | 82

// next entry
O=S(=O)(NC1CCN(CCOc2cccc3ccccc23)C1)c1ccc2ccccc2c1 (stereo not shown) [Compound 116] has a reported inhibition at 1 µM of 95

* * *

# Tested on: α1 adrenergic receptors (rat cerebral cortex)
# ASSAY PROCEDURE: Radioligand binding assay, adrenergic α1 receptors
# TEST SETTINGS: test compound 1×10^−6 M
Please go through the items and note down their α1 [%].
Give bare numbers, in %.

Use these answered entries as a reference point.
O=S(=O)(N[C@@H]1CCN(CCCc2noc3cc(F)ccc23)C1)c1ccc2ccccc2c1 [Compound 206] | 93
Cc1c(S(=O)(=O)NC2CCN(CCCc3noc4cc(F)ccc34)CC2)sc2ccc(Cl)cc12 [Compound 326] | 70
O=S(=O)(NCC1CCN(CCOc2cccc3c2OCCO3)C1)c1ccc(F)c(Cl)c1 (stereo not drawn) [Compound 317] | 84
O=S(=O)(NCC1CCN(CCOc2nsc3ccccc23)C1)c1cccc(O)c1 (stereo not drawn) [Compound 43] | 68
O=S(=O)(NCC1CN(CCOc2nsc3ccccc23)C1)c1ccc2ccccc2c1 [Compound 162] | 83

Could I get α1 [%] for every one of these entries?
1. O=S(=O)(NC1CCN(CCOc2cccc3c2OCCO3)C1)c1ccc2ccccc2c1 (stereo not drawn) [Compound 99]
2. Cn1ccc2c(S(=O)(=O)NCC3CN(CCOc4cccc5c4OCCO5)C3)cccc21 [Compound 188]

**Result**
1: 70; 2: 91

Can you give me α1 [%] for all of these, one by one?
1. O=S(=O)(N[C@@H]1CCN(CCCc2noc3cc(F)ccc23)C1)c1cc2ccccc2s1 [Compound 196]
2. Cc1c(S(=O)(=O)NCC2CN(CCOc3cccc4c3OCCO4)C2)sc2ccc(Cl)cc12 [Compound 175]

**Result**
1. 95
2. 50

Please state, for each entry, its recorded α1 [%].
1. Cc1cccc(S(=O)(=O)NC2CN(CCOc3cccc4c3OCCO4)C2)c1 [Compound 93]
2. O=S(=O)(NCC1CN(CCOc2cccc3c2OCCO3)C1)c1ccc(Cl)c(Cl)c1 [Compound 183]
3. O=S(=O)(NC1CCN(CCCc2noc3cc(F)ccc23)C1)c1ccc2cc(Cl)ccc2c1 (stereo not drawn) [Compound 23]
4. Cc1cc(S(=O)(=O)N[C@H]2CCN(CCCc3noc4cc(F)ccc34)C2)c(C)s1 [Compound 223]

**Result**
52
85
64
86

Value sought for every listed compound: α1 [%].
1. Cc1c(S(=O)(=O)N[C@@H]2CCN(CCCc3noc4cc(F)ccc34)C2)sc2ccc(Cl)cc12 [Compound 204]
2. O=S(=O)(NCC1CCN(CCOc2cccc3ccccc23)C1)c1csc2ccccc12 (stereo not drawn) [Compound 276]
3. O=S(=O)(NCC1CN(CCOc2cccc3c2OCCO3)C1)c1ccsc1 [Compound 191]
4. O=S(=O)(NC1CCN(CCCc2noc3cc(F)ccc23)C1)c1cccc(Cl)c1 (stereo not drawn) [Compound 9]
5. O=S(=O)(NC1CN(CCOc2cccc3[nH]ccc23)C1)c1ccc(F)cc1 [Compound 46]

**Result**
1. 76
2. 16
3. 54
4. 83
5. 85

* * *

# TESTED TARGET: 5-HT2C receptor (Homo sapiens)
# Construct: expressed in transfected cells; host or cells: HEK-293 cells
# Sequence (P28335 33-458): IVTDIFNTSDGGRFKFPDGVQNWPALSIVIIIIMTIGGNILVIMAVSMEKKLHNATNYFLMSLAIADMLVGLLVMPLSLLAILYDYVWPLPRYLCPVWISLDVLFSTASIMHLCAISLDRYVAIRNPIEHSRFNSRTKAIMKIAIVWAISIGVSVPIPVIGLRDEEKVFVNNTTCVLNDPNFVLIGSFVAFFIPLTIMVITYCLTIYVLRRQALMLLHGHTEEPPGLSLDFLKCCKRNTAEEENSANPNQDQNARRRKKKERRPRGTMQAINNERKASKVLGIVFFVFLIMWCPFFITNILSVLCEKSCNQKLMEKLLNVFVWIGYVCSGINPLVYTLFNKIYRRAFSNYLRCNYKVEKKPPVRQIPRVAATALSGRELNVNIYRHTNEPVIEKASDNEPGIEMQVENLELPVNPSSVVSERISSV
# ASSAY PROCEDURE: Radioligand binding assay, serotoninergic 5-HT2C receptors
# TEST SETTINGS: test compound 1×10^−6 M
Entries are grouped by inhibition at 1 µM into these classes: lower segment = under 50%, middle segment = from 50% up to 80%, upper segment = 80% and over

Example entries begin here.
Cc1ccc2sc(S(=O)(=O)N[C@@H]3CCN(CCCc4noc5cc(F)ccc45)C3)cc2c1 | upper segment
Cc1cccc(S(=O)(=O)NC2CN(CCOc3cccc4[nH]ccc34)C2)c1 | lower segment
O=S(=O)(NC1CCN(CCCc2c[nH]c3ccc(F)cc23)C1)c1ccc(F)cc1 (stereo not drawn) | upper segment
Cc1c(S(=O)(=O)N[C@@H]2CCN(CCCc3noc4cc(F)ccc34)C2)sc2ccc(F)cc12 | upper segment
O=S(=O)(NCC1CCN(CCOc2cccc3c2OCCO3)C1)c1ccc2c(c1)CCO2 (stereo not drawn) | lower segment

**Query** Band for Cc1cc(S(=O)(=O)N[C@@H]2CCN(CCCc3noc4cc(F)ccc34)C2)c(C)s1 ?
**Result** middle segment

**Query** Could you tell me which band O=S(=O)(NC1CN(CCOc2cccc3[nH]ccc23)C1)c1ccc2ccccc2c1 belongs to?
**Result** middle segment

* * *

# TESTED TARGET: 5-HT6 receptor (Homo sapiens)
# Construct: purchased PerkinElmer
# ASSAY PROCEDURE: Radioligand binding assay, serotoninergic 5-HT6 receptors;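 note: test compound at 1 µM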
# TEST SETTINGS: binding assay result in %, Table 5a
QUANTITY NAME: inhibition at 1 µM (%)
Numbers only, in %.

# count of solved cases: 5
N#Cc1ccc(S(=O)(=O)NC2CCN(CCCc3noc4cc(F)ccc34)C2)cc1 (stereo not drawn) [Compound 210] | 68
O=S(=O)(NC1CCN(CCCc2noc3cc(F)ccc23)C1)c1cc2ccccc2o1 (stereo not drawn) [Compound 216] | 97
Cn1ccc2cc(S(=O)(=O)NC3CCN(CCCc4noc5cc(F)ccc45)C3)ccc21 (stereo not drawn) [Compound 218] | 95
O=S(=O)(NC1CCN(CCCc2noc3cc(F)ccc23)C1)c1ccc(Cl)cc1 (stereo not drawn) [Compound 208] | 87
O=S(=O)(NCC1CCN(CCOc2cccc3c2OCCO3)C1)c1ccc2c(c1)CCO2 (stereo not drawn) [Compound 306] | 45

For every record below, what is its inhibition at 1 µM?
1. Cc1ccc(S(=O)(=O)NCC2CCN(CCOc3cccc4c3OCCO4)C2)cc1 (stereo not drawn) [Compound 291]
2. COc1cccc(S(=O)(=O)NC2CCN(CCCc3noc4cc(F)ccc34)C2)c1 (stereo not drawn) [Compound 17]
3. O=S(=O)(NCC1CCN(CCOc2cccc3c2OCCO3)C1)c1ccc(F)cc1 (stereo not drawn) [Compound 300]
4. O=S(=O)(NCC1CCN(CCOc2cccc3c2OCCO3)C1)c1ccc(Cl)s1 (stereo not drawn) [Compound 316]

**Result**
1: 19; 2: 76; 3: 38; 4: 36

* * *

Record form. Attribute: inhibition at 1 µM. Fill in for each entry.
# TESTED TARGET: 5-HT2C receptor (Homo sapiens)
# Construct: expressed in transfected cells; host or cells: HEK-293 cells
# ASSAY PROCEDURE: Radioligand binding assay, serotoninergic 5-HT2C receptors
# TEST SETTINGS: test compound 1×10^−6 M
Give bare numbers, in %.

COc1cccc(S(=O)(=O)NCC2CN(CCCc3noc4cc(F)ccc34)C2)c1 [Compound 143] | 68
O=S(=O)(NC1CCN(CCOc2nsc3ccccc23)C1)c1ccc2ccccc2c1 (stereo not drawn) [Compound 39] | 74
O=S(=O)(NC1CCN(CCCc2noc3cc(F)ccc23)C1)c1ccc2ccccc2c1 (stereo not drawn) [Compound 21] | 71
Cc1c(S(=O)(=O)NCC2CN(CCCc3noc4cc(F)ccc34)C2)sc2ccc(Cl)cc12 [Compound 131] | 88
O=S(=O)(NCC1CCN(CCOc2cccc3c2OCCO3)C1)c1ccc(Br)cc1 (stereo not drawn) [Compound 305] | 59

Answer for every listed entry: what is its inhibition at 1 µM? The entries follow.
1. O=S(=O)(NC1CCN(CCCc2c[nH]c3ccc(Cl)cc23)C1)c1cccc(Cl)c1 (stereo not drawn) [Compound 84]
2. O=S(=O)(NC1CCN(CCCc2c[nH]c3ccc(F)cc23)C1)c1ccc2ccccc2c1 (stereo not drawn) [Compound 80]
3. Cc1c(S(=O)(=O)N[C@H]2CCN(CCCc3noc4cc(F)ccc34)C2)sc2ccc(F)cc12 [Compound 203]
4. Cc1cc(S(=O)(=O)NCC2CCN(CCOc3cccc4c3OCCO4)C2)c(C)s1 (stereo not drawn) [Compound 312]
5. Cc1c(S(=O)(=O)NC2CCN(CCCc3noc4cc(F)ccc34)C2)sc2ccc(Cl)cc12 (stereo not drawn) [Compound 29]
6. COc1ccc2cc(S(=O)(=O)NC3CCN(CCCc4noc5cc(F)ccc45)C3)ccc2c1 (stereo not drawn) [Compound 227]
7. O=S(=O)(NCC1CN(CCCc2noc3cc(F)ccc23)C1)c1ccc2ccccc2c1 [Compound 134]

**Result**
88
86
90
55
28
82
87

I would be grateful if you could provide inhibition at 1 µM for each of the following entries.
1. Cc1ccc2sc(S(=O)(=O)NC3CCN(CCCc4noc5cc(F)ccc45)C3)cc2c1 (stereo not drawn) [Compound 226]
2. Cc1c(S(=O)(=O)N[C@H]2CCN(CCCc3noc4cc(F)ccc34)C2)sc2ccc(Cl)cc12 [Compound 205]
3. O=S(=O)(NC1CCN(CCCc2noc3cc(F)ccc23)C1)c1csc2ccccc12 (stereo not drawn) [Compound 26]

**Result**
[89, 86, 51]
